B1: library; a variant is named by its letters at N, in order (parent)
chain: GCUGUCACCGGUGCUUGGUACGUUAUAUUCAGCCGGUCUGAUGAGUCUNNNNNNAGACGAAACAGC

Variants of: B1
Experiment: normalized RNA/DNA level with ligand (relative to sTRSVctl = 100) (log10 (% of sTRSVctl)); HEK293T overexpressing SLC46A1; ligand concentration (+) RNA-Seq: 6 mM; higher = less ribozyme self-cleavage, higher mRNA level
Conditions: with (6R,S)-folinic acid; ligand present: yes
quantity_measured: normalized RNA/DNA level with ligand (log10)
Answers are plain numbers.

{"variant_descriptor": "UGACAU", "measured_value": 1.99}
{"variant_descriptor": "AACUGC", "measured_value": 2.06}
{"variant_descriptor": "CAUGCU", "measured_value": 2.05}
{"variant_descriptor": "GUGUAA", "measured_value": 2}
{"variant_descriptor": "GUUCCU", "measured_value": 2.04}
{"variant_descriptor": "GGACCU", "measured_value": 2.02}
{"variant_descriptor": "GGGAGA", "measured_value": 2.05}
{"variant_descriptor": "GUCUUG", "measured_value": 2.05}

Provide reported normalized RNA/DNA level with ligand (log10) for each item, in the same order as listed.
1. AUGGUA
2. GCCCCG
3. CACUUG

Reply:
1: 1.98; 2: 1.99; 3: 2.03

Origin of values: the supplement of paper PMC6757056
